# System: D4 CHO cells expressing human FRβ
# conditions: Homo sapiens, CHO, read-out: IC50 growth inhibition, FRβ, D4
quantity-measured: IC50

Q: Recall and state the measured IC50 for Nc1nc2[nH]c(CCC#Cc3cccc(C(=O)N[C@@H](CCC(=O)O)C(=O)O)n3)cc2c(=O)[nH]1 .
Result: > 1 µM

Q: Recall and state the measured IC50 for Nc1nc2[nH]c(CCCCc3cccc(C(=O)N[C@@H](CCC(=O)O)C(=O)O)n3)cc2c(=O)[nH]1 .
Result: > 1 µM
